Source listed as paper PMC10287566.

experiment_notes: Plasma and brain pharmacokinetics/toxicokinetics in rats
Format: in vivo
condition_label: Sprague Dawley, rat, plasma, po, 1.6 mg/kg, rats po 1.6 mg/kg single
experimental_readout: Cmax
Record the result as a number with its unit.

Query COc1ccc(CO[C@H]2CC[C@@]3(C)C(=CC[C@H]4[C@@H]5CC[C@H](C(C)=O)[C@@]5(C)CC[C@@H]43)C2)cc1 yields Cmax of 116 ng/mL
